Biological target: h12/15-LOX (Homo sapiens (Human), UniProt P16050)
Sequence (P16050 whole entry): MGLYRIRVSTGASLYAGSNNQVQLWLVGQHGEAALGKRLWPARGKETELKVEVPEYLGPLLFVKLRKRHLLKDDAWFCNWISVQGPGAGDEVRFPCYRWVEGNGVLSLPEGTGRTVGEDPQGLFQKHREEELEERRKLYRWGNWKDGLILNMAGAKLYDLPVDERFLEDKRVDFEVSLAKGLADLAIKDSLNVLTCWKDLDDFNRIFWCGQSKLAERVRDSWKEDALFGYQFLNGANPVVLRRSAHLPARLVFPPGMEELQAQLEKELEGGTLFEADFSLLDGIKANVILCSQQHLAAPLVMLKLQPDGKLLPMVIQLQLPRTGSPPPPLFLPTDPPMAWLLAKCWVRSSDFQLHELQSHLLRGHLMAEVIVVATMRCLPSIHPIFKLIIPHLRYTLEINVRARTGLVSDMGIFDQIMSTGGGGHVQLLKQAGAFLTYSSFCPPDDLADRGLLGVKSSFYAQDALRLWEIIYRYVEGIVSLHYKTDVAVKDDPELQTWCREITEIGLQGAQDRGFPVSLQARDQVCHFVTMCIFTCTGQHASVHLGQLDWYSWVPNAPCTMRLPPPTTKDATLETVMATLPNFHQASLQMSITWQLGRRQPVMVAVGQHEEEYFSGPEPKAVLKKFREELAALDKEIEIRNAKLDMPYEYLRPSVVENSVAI
Test: 12/15-LOX enzyme inhibition IC50 assay (Examples 1 and 2)
Where a name gives a salt, the structure may show the parent alone.
Record form. Attribute: IC50. Fill in for each entry.

The molecule listed as COCCOC(=O)Nc1oc(-c2cc(Cl)cc(Cl)c2Cl)nc1C#N shows IC50 equal to > 20 µM

Memo: CN(C)CCOC(=O)Nc1oc(-c2cc(Cl)cc(Cl)c2Cl)nc1C#N [Compound 59, hydrochloride] , reported IC50: > 20 µM

// field: IC50; key: N#Cc1nc(-c2cc(Cl)cc(Cl)c2Cl)oc1NCCOCCN1CC(F)C1 ; value = > 20 µM

Attribution: patent US20240336642A1
